# System: mitochondria or chloroplast of Chlamydomonas reinhardtii
# ASSAY DETAILS: Subcellular localization of Venus reporter by epifluorescence microscopy (manual targeting assignment)
# Format: cell-based
# EXPERIMENTAL PARAMETERS: targeting of the Venus reporter fused to the peptide, expressed in Chlamydomonas reinhardtii; manual assignment from epifluorescence microscopy; full or partial
MEASUREMENT NAME: Localisation

Below are worked cases with known answers.
MACROMOLECULE SEQUENCE	Localisation
MSFLTTFKDLAIKAAKSAGQSVLSTLSCKLSNTCSVRRAQLQVVASSRKQMGRWRSIDAGVDASDDQ [B2I.K.c]	Mitochondria
MGLLLDTLKGAAKDIAGIALEKLKCKITGCKP [R2G.K]	Neither
MQVTMKSSAVSGQRVMGWIRDFGKRIERVGQHTRDATIQTIAVAQQAANVAATLKG [c.S1D.K]	Mitochondria
MDEVNNDNCRIKFKGDISSESDKMNINY [RP2.K]	Neither
MKYYGNGVSCNKKGCSVDWGKAIGIIGNNAAANLTTGGKAGWKG [EHF.K]	Neither
MQVTMKSSAVSGQRVGIGRFLHSARRFGRAFVGEIMNSSVRRAQLQVVASSRKQMGRWRSIDAGVDASDDQ [c.MII.R.c]	Chloroplast
MQVTMKSSAVSGQRV [c.-]	Neither
MQVTMKSSAVSGQRVMSFLTTFKDLAIKAAKSAGQSVLSTLSCKLSNTCLTQTAESFRGVSSQFFDAPNGPSVKQVLIEDEW [c.B2I.K.m]	Mitochondria
MQVTMKSSAVSGQRVMGLLLDTLKGAAKDIAGIALEKLKCKITGCKPLTQTAESFRGVSSQFFDAPNGPSVKQVLIEDEW [c.R2G.K.m]	Mitochondria
MQVTMKSSAVSGQRVMGWIRDFGKRIERVGQHTRDATIQTIAVAQQAANVAATLKGLTQTAESFRGVSSQFFDAPNGPSVKQVLIEDEW [c.S1D.K.m]	Dual

Please examine the following record next.
Give its Localisation value. Item: MQVTMKSSAVSGQRVDEVNNDNCRIKFKGDISSESDKMNINYSVRRAQLQVVASSRKQMGRWRSIDAGVDASDDQ [c.RP2.K.c]
Neither

###

# System: mitochondria or chloroplast of Chlamydomonas reinhardtii
# ASSAY DETAILS: Subcellular localization of Venus reporter by epifluorescence microscopy (manual targeting assignment)
# Type: cell-based
# EXPERIMENTAL PARAMETERS: peptide-Venus reporter construct expressed in Chlamydomonas reinhardtii; manual targeting assignment (Neither / Mitochondria / Chloroplast / Dual; partial = partial targeting)
MEASUREMENT NAME: Localisation

MACROMOLECULE SEQUENCE	TARGET OR SYSTEM	Localisation
MALWMTLLKKVLKAAAKAALNAVLVGANASVRRAQLQVVASSRKQMGRWRSIDAGVDASDDQ [DS4.K.c]	mitochondria or chloroplast of Chlamydomonas reinhardtii	Neither
MQVTMKSSAVSGQRVMWLSKTAKKLENSAKKRISEGIAIAIKGGSRSVRRAQLQVVASSRKQMGRWRSIDAGVDASDDQ [c.CP3.K.c]	mitochondria or chloroplast of Chlamydomonas reinhardtii	Neither
MGLFSKFNKKKIKSGLIKIIKTAGKEAGLEALRTGIDVIGCKIKGECSVRRAQLQVVASSRKQMGRWRSIDAGVDASDDQ [E1S.K.c]	mitochondria or chloroplast of Chlamydomonas reinhardtii	Neither
MGLFSKFNKKKIKSGLIKIIKTAGKEAGLEALRTGIDVIGCKIKGECLTQTAESFRGVSSQFFDAPNGPSVKQVLIEDEW [E1S.K.m]	mitochondria or chloroplast of Chlamydomonas reinhardtii	Neither
MQVTMKSSAVSGQRVMVNYGNGVSCSRTRCSVNWGIITHQAFRVTSGVASGSVRRAQLQVVASSRKQMGRWRSIDAGVDASDDQ [c.B15.R.c]	mitochondria or chloroplast of Chlamydomonas reinhardtii	Chloroplast

Give its Localisation value. Item: MVNYGNGVSCSKTKCSVNWGIITHQAFRVTSGVASGSVRRAQLQVVASSRKQMGRWRSIDAGVDASDDQ [B15.K.c]
Chloroplast

Give its Localisation value. Item: MGLFSRFNRRRIRSGLIRIIRTAGREAGLEALRTGIDVIGCRIRGECLTQTAESFRGVSSQFFDAPNGPSVKQVLIEDEW [E1S.R.m]
Mitochondria (partial)

###

# Test system: mitochondria or chloroplast of Chlamydomonas reinhardtii
# ASSAY DETAILS: Subcellular localization of Venus reporter by epifluorescence microscopy (manual targeting assignment)
# Assay type: cell-based
# EXPERIMENTAL PARAMETERS: targeting of the Venus reporter fused to the peptide, expressed in Chlamydomonas reinhardtii; manual assignment from epifluorescence microscopy; full or partial
MEASUREMENT NAME: Localisation

MACROMOLECULE SEQUENCE	TARGET OR SYSTEM	MEASUREMENT NAME	RECORDED RESULT
MQVTMKSSAVSGQRVALWMTLLRRVLRAAARAALNAVLVGANALTQTAESFRGVSSQFFDAPNGPSVKQVLIEDEW [c.DS4.R.m]	mitochondria or chloroplast of Chlamydomonas reinhardtii	Localisation	Neither
MQVTMKSSAVSGQRVFLPLLAGLAANFLPKIFCKITRKCLTQTAESFRGVSSQFFDAPNGPSVKQVLIEDEW [c.B1E.K.m]	mitochondria or chloroplast of Chlamydomonas reinhardtii	Localisation	Dual
MQVTMKSSAVSGQRVMWLSRTARRLENSARRRISEGIAIAIRGGSRLTQTAESFRGVSSQFFDAPNGPSVKQVLIEDEW [c.CP3.R.m]	mitochondria or chloroplast of Chlamydomonas reinhardtii	Localisation	Neither

###

# Test system: mitochondria or chloroplast of Chlamydomonas reinhardtii
# ASSAY DETAILS: Subcellular localization of Venus reporter by epifluorescence microscopy (manual targeting assignment)
# Assay type: cell-based
# EXPERIMENTAL PARAMETERS: manual targeting assignment of the Venus reporter construct in Chlamydomonas: Neither / Mitochondria / Chloroplast / Dual, (partial) = partial targeting

MACROMOLECULE SEQUENCE	Localisation
MQVTMKSSAVSGQKVGGAKVATK [c.CH.K]	Neither
MQVTMKSSAVSGQRVGGARVATRLTQTAESFRGVSSQFFDAPNGPSVKQVLIEDEW [c.CH.R.m]	Neither

###

# Tested on: mitochondria or chloroplast of Chlamydomonas reinhardtii
# ASSAY DETAILS: Subcellular localization of Venus reporter by epifluorescence microscopy (manual targeting assignment)
# Type: cell-based
# EXPERIMENTAL PARAMETERS: peptide-Venus reporter construct expressed in Chlamydomonas reinhardtii; manual targeting assignment (Neither / Mitochondria / Chloroplast / Dual; partial = partial targeting)
MEASUREMENT NAME: Localisation

Below are worked cases with known answers.
MACROMOLECULE SEQUENCE	TARGET OR SYSTEM	Localisation
MWLSRTARRLENSARRRISEGIAIAIRGGSR [CP3.R]	mitochondria or chloroplast of Chlamydomonas reinhardtii	Mitochondria (partial)
MQVTMKSSAVSGQRVALWMTLLKKVLKAAAKAALNAVLVGANALTQTAESFRGVSSQFFDAPNGPSVKQVLIEDEW [c.DS4.K.m]	mitochondria or chloroplast of Chlamydomonas reinhardtii	Neither
MQVTMKSSAVSGQRVMKYYGNGVHCTKSGCSVNWGEAFSAGVHRLANGGNGFW [c.LCA.K]	mitochondria or chloroplast of Chlamydomonas reinhardtii	Neither
MALWMTLLRRVLRAAARAALNAVLVGANASVRRAQLQVVASSRKQMGRWRSIDAGVDASDDQ [DS4.R.c]	mitochondria or chloroplast of Chlamydomonas reinhardtii	Neither
MFLPLLAGLAANFLPRIFCRITRRCSVRRAQLQVVASSRKQMGRWRSIDAGVDASDDQ [B1E.R.c]	mitochondria or chloroplast of Chlamydomonas reinhardtii	Neither

Give its Localisation value. Item: MQVTMKSSAVSGQRVMKYYGNGVHCTKSGCSVNWGEAFSAGVHRLANGGNGFWSVRRAQLQVVASSRKQMGRWRSIDAGVDASDDQ [c.LCA.K.c]
Chloroplast (partial)

Give its Localisation value. Item: MFLPLLAGLAANFLPRIFCRITRRC [B1E.R]
Neither

Give its Localisation value. Item: MQVTMKSSAVSGQRVALWMTLLRRVLRAAARAALNAVLVGANA [c.DS4.R]
Neither

Give its Localisation value. Item: MQVTMKSSAVSGQRVMVNYGNGVSCSKTKCSVNWGIITHQAFRVTSGVASG [c.B15.K]
Neither

Give its Localisation value. Item: MFLPLLAGLAANFLPKIFCKITRKCLTQTAESFRGVSSQFFDAPNGPSVKQVLIEDEW [B1E.K.m]
Neither

###

# Test system: mitochondria or chloroplast of Chlamydomonas reinhardtii
# ASSAY DETAILS: Subcellular localization of Venus reporter by epifluorescence microscopy (manual targeting assignment)
# Assay type: cell-based
# EXPERIMENTAL PARAMETERS: targeting of the Venus reporter fused to the peptide, expressed in Chlamydomonas reinhardtii; manual assignment from epifluorescence microscopy; full or partial
MEASUREMENT NAME: Localisation

MACROMOLECULE SEQUENCE	Localisation
MQVTMKSSAVSGQRVMALWKTMLKKLGTMALHAGKAAFGAAADTISQ [c.DDM.K]	Neither
MGKIPVKAIKKAGAAIGKGLRAINIASTAHDVYSFFKPKHKKKSVRRAQLQVVASSRKQMGRWRSIDAGVDASDDQ [SIM.K.c]	Neither
MGLLLDTLKGAAKDIAGIALEKLKCKITGCKPSVRRAQLQVVASSRKQMGRWRSIDAGVDASDDQ [R2G.K.c]	Neither
MNIVVYWNFTLWHMDINARNAGCDGEGSSVRRAQLQVVASSRKQMGRWRSIDAGVDASDDQ [RP1.K.c]	Neither
MQVTMKSSAVSGQRVMKYYGNGVSCNKKGCSVDWGKAIGIIGNNAAANLTTGGKAGWKG [c.EHF.K]	Neither

Give its Localisation value. Item: MQVTMKSSAVSGQRVDEVNNDNCRIKFKGDISSESDKMNINYLTQTAESFRGVSSQFFDAPNGPSVKQVLIEDEW [c.RP2.K.m]
Neither
